System: Streptococcus pneumoniae
Assay: Potency index, ratio of azithromycin MIC to compound MIC for erythromycin-resistant Streptococcus pneumoniae AB11 expressing ermB/mefA gene
Assay type: functional
Readout: Ratio
Could you respond with only the numeric value?

{"Molecule": "CC[C@H]1OC(=O)[C@H](C)[C@@H](O[C@H]2C[C@@](C)(OC)[C@@H](OC(=O)NCc3cn(Cc4ccc(Cl)cc4Cl)nn3)[C@H](C)O2)[C@H](C)[C@@H](O[C@@H]2O[C@H](C)C[C@H](N(C)C)[C@H]2O)[C@](C)(O)C[C@@H](C)CN(C)[C@H](C)[C@@H](O)[C@]1(C)O", "Quantitative Readout": 1024}

stdin: Tell us which Ratio value is on record for CC[C@H]1OC(=O)[C@H](C)[C@@H](O[C@H]2C[C@@](C)(OC)[C@@H](OC(=O)NCc3cn(Cc4c(Cl)cccc4Cl)nn3)[C@H](C)O2)[C@H](C)[C@@H](O[C@@H]2O[C@H](C)C[C@H](N(C)C)[C@H]2O)[C@](C)(O)C[C@@H](C)CN(C)[C@H](C)[C@H]2OC(=O)O[C@@]21C
stdout: 1024
